Protocol notes: Dog pharmacokinetic study (iv and sc, solution vehicles)
Format: in vivo
Applied conditions: beagle, plasma, sc, 67 ug/kg; dog, subcutaneous 67 μg/kg, Tables 6A-6C (vehicle 0.2 M Tris, pH 8.0); read-out: t½ (converted)
Where a SMILES comes first, the peptide text is derived from it. [ ]: non-standard residue; d: D form. The star is where a group is joined. ξ: configuration not given here. Ala(6-(2-MePh)pyridin-3-yl) = Cc1ccccc1-c1ccc(C[C@H](N)C(=O)O)cn1; Phe(4-(2-Et-4-HO-Ph)) = CCc1cc(O)ccc1-c1ccc(C[C@H](N)C(=O)O)cc1; ξαMePhe(2-F) = CC(N)(Cc1ccccc1F)C(=O)O; ξαMeP = CC1(C(=O)O)CCCN1; Moc = COC(=O)*
Observable: half-life (h)
# unit: h | format: bare number

Q. GET /values?readout=half-life&item= CCc1cc(O)ccc1-c1ccc(C[C@H](NC(=O)[C@H](CC(=O)O)NC(=O)[C@H](CO)NC(=O)[C@@H](NC(=O)C(C)(Cc2ccccc2F)NC(=O)[C@@H](NC(=O)CNC(=O)[C@H](CCC(=O)O)NC(=O)C2(C)CCCN2C(=O)[C@H](Cc2c[nH]cn2)NC(=O)OC)[C@@H](C)O)[C@@H](C)O)C(=O)N[C@@H](Cc2ccc(-c3ccccc3C)nc2)C(N)=O)cc1 (stereo partly shown) [SEQ ID NO: 158] (Moc-H[ξαMeP]EGT[ξαMePhe(2-F)]TSD[Phe(4-(2-Et-4-HO-Ph))][Ala(6-(2-MePh)pyridin-3-yl)]-NH2)
A. 3.9
